Molecular target: HGF (hepatocyte growth factor/scatter factor) (UniProt P14210;P14210 P14210:32-494,P14210:495-728)
Sequence (P14210 32-494, chain 1 of 2): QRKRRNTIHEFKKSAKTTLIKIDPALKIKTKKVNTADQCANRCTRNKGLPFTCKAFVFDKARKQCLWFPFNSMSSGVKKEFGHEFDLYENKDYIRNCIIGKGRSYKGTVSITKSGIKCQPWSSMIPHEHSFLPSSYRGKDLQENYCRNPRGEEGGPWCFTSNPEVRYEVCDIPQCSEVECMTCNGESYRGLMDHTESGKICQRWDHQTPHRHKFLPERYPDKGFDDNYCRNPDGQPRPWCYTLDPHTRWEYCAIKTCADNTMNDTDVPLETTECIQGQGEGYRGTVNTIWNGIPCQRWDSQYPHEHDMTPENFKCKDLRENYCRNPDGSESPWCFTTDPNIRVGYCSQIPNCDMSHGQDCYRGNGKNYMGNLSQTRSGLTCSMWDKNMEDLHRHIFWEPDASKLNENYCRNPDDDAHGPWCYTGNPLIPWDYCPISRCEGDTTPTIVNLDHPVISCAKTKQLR
Sequence (P14210 495-728, chain 2 of 2): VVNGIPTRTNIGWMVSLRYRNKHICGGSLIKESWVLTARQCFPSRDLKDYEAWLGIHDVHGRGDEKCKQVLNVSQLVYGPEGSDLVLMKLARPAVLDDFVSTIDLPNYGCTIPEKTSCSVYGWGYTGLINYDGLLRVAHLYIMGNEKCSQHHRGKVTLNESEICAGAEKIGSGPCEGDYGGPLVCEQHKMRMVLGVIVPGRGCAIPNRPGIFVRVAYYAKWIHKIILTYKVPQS
Assay: filter; HBSMC, 37C
Conditions: tags: R&D Systems
quantity name: pKd
Notebook: values listed as pKd are -log10 of the concentration (mol/L).

{"columns": ["binder", "pKd"],
 "data": [
  ["11-153 (ssRNA, 2'-F pyrimidines) RNA: GGGAGGACGAUGCGGACAGGUAGUCUUCUAUAGCACUUCCUCCCCCAGACGACUCGCCCGA", 9.72],
  ["8-154 (ssRNA, 2'-F pyrimidines) RNA: GGGAGGACGAUGCGGUCCCAAGAUUCAGGGCGUUUCUUCCUCGUCCAGACGACUCGCCCGA", 9.92]
]}

Query binder follows.
Return the recorded pKd value; entry: 11-123 (ssRNA, 2'-F pyrimidines) RNA: GGGAGGACGAUGCGGGUGACUCAAAAUGGUGAUCCUCGUUUCGCCAGACGACUCGCCCGA
10.05
